Cited source for all entries: ChEMBL document CHEMBL1131475

test: in vivo; conditions: rat, plasma, po; also: test concentration or dose not given here
endpoint-label: AUC (ng·h/mL)

compound	AUC [ng·h/mL]
COc1cncc(COC(=O)NC(C(=O)N[C@@H](Cc2ccccc2)[C@@H](O)C[C@H](Cc2ccccc2)NC(=O)OCc2cccnc2)C(C)C)c1 (stereo partly specified)	70

A. CC(C)C(NC(=O)N(C)Cc1ccccn1)C(=O)N[C@@H](Cc1ccccc1)C[C@H](O)[C@H](Cc1ccccc1)NC(=O)OCc1cncnc1 (stereo partly specified)
B. CC(C)c1nc(CN(C)C(=O)NC(C(=O)N[C@@H](Cc2ccccc2)[C@@H](O)C[C@H](Cc2ccccc2)NC(=O)OCc2cccnc2)C(C)C)cs1 (stereo partly specified)
C. CC(C)c1nc(COC(=O)NC(C(=O)N[C@@H](Cc2ccccc2)C[C@H](O)[C@H](Cc2ccccc2)NC(=O)OCc2cccnc2)C(C)C)cs1 (stereo partly specified)
D. CC(NC(=O)N(C)Cc1csc(C(C)C)n1)C(=O)N[C@@H](Cc1ccccc1)C[C@H](O)[C@H](Cc1ccccc1)NC(=O)OCc1cncs1 (stereo partly specified)
Parameters: sort_field (AUC), sort_dir (desc). List the labels, following the order given in the request.
D, B, A, C
